assayed.system: human recombinant chemokine CCR8 receptor (Homo sapiens, UniProt P51685)
Sequence (P51685 whole entry): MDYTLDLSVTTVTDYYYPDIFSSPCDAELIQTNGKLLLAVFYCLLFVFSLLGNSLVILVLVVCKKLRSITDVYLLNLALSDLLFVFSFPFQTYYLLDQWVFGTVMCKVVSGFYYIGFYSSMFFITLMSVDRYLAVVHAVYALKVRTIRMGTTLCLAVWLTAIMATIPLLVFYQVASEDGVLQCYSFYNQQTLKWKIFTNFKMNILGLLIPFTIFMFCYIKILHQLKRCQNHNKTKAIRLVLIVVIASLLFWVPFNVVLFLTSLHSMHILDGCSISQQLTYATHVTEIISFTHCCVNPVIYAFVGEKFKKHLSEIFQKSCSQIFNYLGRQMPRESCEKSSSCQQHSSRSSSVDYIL
protocol.summary: CCL1 SPA binding assay
condition: inhibition of 125I CCL1 binding to membranes from CHO-K1 cells transfected with human CCR8
Where a name gives a salt, the structure may show the parent alone.
Please go through the items and note down their pIC50.
The read-out pIC50 is expressed as -log10 of concentration in moles per litre.

Query: # query: pIC50 of entry "COc1ccccc1Oc1ccccc1CN1CCC2(CC1)CCN(C(=O)c1ccc[nH]c1=O)CC2"
Result: 7.21

Query: # query: pIC50 of entry "COc1ccccc1Oc1cccc(CN2CCC3(CC2)CCN(C(=O)c2ccc[nH]c2=O)CC3)c1"
Result: 7.82

Query: # query: pIC50 of entry CC(C)COc1ccccc1CN1CCC2(CC1)CCN(C(=O)c1ccc[nH]c1=O)CC2 [A, reference compound]
Result: 5.71

Query: # query: pIC50 of entry COc1ccccc1Oc1ccccc1CN1CCC2(CC1)CCN(C(=O)c1ccc(=O)[nH]c1C(F)(F)F)CC2 [Example 3, trifluoroacetate]
Result: 7.08

Query: # query: pIC50 of entry CC(C)COc1ccccc1CN1CCC2(CC1)CCN(C(=O)c1ccc(=O)[nH]c1)CC2 [B, reference compound]
Result: 5.72
